A collection of compounds and their measured composite z-score
Procedure details: small-molecule binders of probe aNOTCH3, primary screen, biochemical, small-molecule microarray, 635/667 nm fluorescence (AID 1120);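 note: probe is a biotin-tagged antibody raised against NOTCH3 rather than NOTCH3 protein; score merges spot fluorescence near 667 nm with spot signal to noise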
Experimental context: higher = more signal

{"Chemical smiles": "O=C(CCCCCCC(=O)Nc1ccccc1)N/N=C/c1ccccc1", "composite z-score": -0.154}
{"Chemical smiles": "C=C(CCCC)/C(=C/C[C@@H](OC(=O)c1ccncc1)c1cccc(OCCO)c1)c1cnc2ccccc2c1", "composite z-score": 0.272}
{"Chemical smiles": "COCCOC(=O)N1C(=O)[C@@]2(c3cc(C#Cc4ccc(OC)cc4)ccc31)[C@H](C(=O)N1CCN(c3ncccn3)CC1)[C@H]1C(=O)O[C@H](c3ccccc3)[C@H](c3ccccc3)N1[C@@H]2c1ccccc1OCCO", "composite z-score": -0.122}
{"Chemical smiles": "COc1ccc([Si](C)(C)[C@@H]2[C@@H](CCO)O[C@]3(C(=O)N(Cc4cccc(N5C(=O)c6cccc7cccc5c67)c4)c4ccccc43)[C@H]2C)cc1", "composite z-score": -0.0947}
{"Chemical smiles": "[N-]=[N+]=NCc1ccccc1[C@H]1OC(c2ccc(OCCCO)cc2)=N[C@@]1(CCS(=O)(=O)c1ccccc1)C(N)=O", "composite z-score": 0.302}
{"Chemical smiles": "CCCNC(=O)[C@@]1(c2ccc([N+](=O)[O-])cc2)CC(=O)N(C2CCCCC2)[C@@H]1c1ccc(CO)cc1I", "composite z-score": -0.0328}
{"Chemical smiles": "O=C1C[C@@](C(=O)NCC(F)(F)F)(c2ccc([N+](=O)[O-])cc2)[C@@H](c2ccc(CO)cc2)N1C1CCCCC1", "composite z-score": 0.0488}
{"Chemical smiles": "CC(C)(C)OC(=O)CC[C@]1(C(=O)NCCN2CCOCC2)N=C(c2ccc(OCCCO)cc2)O[C@H]1c1ccccc1N=[N+]=[N-]", "composite z-score": 0.286}

---

Test system: Neuregulin-1 EGF-like domain
Procedure details: binders of neuregulin-1 EGF-like domain, primary screen, biochemical, small-molecule microarray, 635 nm fluorescence (AID 1081);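 note: binding of the protein to compounds printed on small-molecule microarray slides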
Experimental context: small-molecule microarray binding, higher = more signal
Short version: composite z-score at least 1 is Satisfied, less is Not satisfied.

{"Compound": "COC(=O)[C@@]1(Cc2ccc(F)cc2)[C@H]2c3cc(C(=O)N4CCCC4)n(CCc4c[nH]c5ccc(OC)cc45)c3C[C@H]2CN1C(=O)c1ccccc1", "Assay system": "Neuregulin-1 EGF-like domain", "Assigned label": "Satisfied"}
{"Compound": "COc1ccc([Si](C)(C)[C@H]2[C@H](CCO)O[C@@]3(C(=O)N(Cc4cccc(N5CCCCC5=O)c4)c4ccccc43)[C@@H]2C)cc1", "Assay system": "Neuregulin-1 EGF-like domain", "Assigned label": "Satisfied"}
{"Compound": "COCCOC(=O)N1C(=O)[C@@]2(c3cc(C#CC4=CCCCC4)ccc31)[C@H](C(=O)N1CCN(c3ncccn3)CC1)[C@H]1C(=O)O[C@H](c3ccccc3)[C@H](c3ccccc3)N1[C@@H]2c1ccc(O)cc1", "Assay system": "Neuregulin-1 EGF-like domain", "Assigned label": "Satisfied"}
{"Compound": "CN(C)C(=O)[C@@]1(Cc2ccccc2N=[N+]=[N-])COC(c2ccc(OCCCO)cc2)=N1", "Assay system": "Neuregulin-1 EGF-like domain", "Assigned label": "Satisfied"}
{"Compound": "CC=CC(O)C1C=CC2C(=O)N(C)C(=O)C2N1N1CCCCC1 (stereo unspecified)", "Assay system": "Neuregulin-1 EGF-like domain", "Assigned label": "Satisfied"}
{"Compound": "COc1cc2c(cc1OC)CN(C(=O)[C@@H]1[C@H]3C(=O)O[C@H](c4ccccc4)[C@H](c4ccccc4)N3[C@H](c3ccccc3OCCO)[C@@]13C(=O)Nc1ccc(C#CC4(O)CCCCCC4)cc13)CC2", "Assay system": "Neuregulin-1 EGF-like domain", "Assigned label": "Satisfied"}
{"Compound": "O=C(O)[C@H]1C[C@H]2C(=O)N3CCC[C@H]3C(=O)N2[C@H]1c1cccc(OCCO)c1", "Assay system": "Neuregulin-1 EGF-like domain", "Assigned label": "Satisfied"}
{"Compound": "CCCCC(CC)C(O)C1C=CC2C(=O)N(c3ccccc3)C(=O)C2N1Nc1ccc([N+](=O)[O-])cc1 (stereo unspecified)", "Assay system": "Neuregulin-1 EGF-like domain", "Assigned label": "Satisfied"}
{"Compound": "C=CCOC(=O)[C@H]1[C@@H]2C(=O)O[C@@H](c3ccccc3)[C@@H](c3ccccc3)N2[C@@H](c2ccc(OCCOC(=O)[C@H]3C[C@H]4C(=O)N[C@@H](CCCC[N+](C)(C)C)C(=O)N4[C@H]3c3cccc(OCCO)c3)cc2)[C@]12C(=O)Nc1ccc(I)cc12", "Assay system": "Neuregulin-1 EGF-like domain", "Assigned label": "Not satisfied"}
{"Compound": "COc1ccc(NN2C(C(O)c3ccco3)C=CC3C(=O)N(C4CCCCC4)C(=O)C32)cc1 (stereo unspecified)", "Assay system": "Neuregulin-1 EGF-like domain", "Assigned label": "Satisfied"}
{"Compound": "COCCOC(=O)N1C(=O)[C@@]2(c3ccccc31)[C@H](c1ccc(OCCO)cc1)N1[C@H](c3ccccc3)[C@H](c3ccccc3)OC(=O)[C@H]1[C@@H]2C(=O)Nc1nc2ccccc2s1", "Assay system": "Neuregulin-1 EGF-like domain", "Assigned label": "Satisfied"}
{"Compound": "COc1ccc(CCNC(=O)[C@@]2(Sc3ccc(C)cc3)CC(=O)N(Cc3cc(C(F)(F)F)cc(C(F)(F)F)c3)[C@@H]2c2ccc(CO)cc2I)cc1", "Assay system": "Neuregulin-1 EGF-like domain", "Assigned label": "Satisfied"}
{"Compound": "C=CCC(OC(C)=O)[C@@H]1[C@@H](N(Cc2ccc(-c3ccccc3)cc2)C(=O)c2cccc3ccccc23)c2cc(OCCCO)ccc2N1C(=O)Cc1ccc2ccccc2c1 (stereo partly specified)", "Assay system": "Neuregulin-1 EGF-like domain", "Assigned label": "Not satisfied"}
{"Compound": "CCCCC(=C=CC[C@@H](O)c1ccc(OCCO)cc1)C[C@@H](O)COCc1ccccc1", "Assay system": "Neuregulin-1 EGF-like domain", "Assigned label": "Not satisfied"}
{"Compound": "CCCNC(=O)[C@@]1(c2ccc([N+](=O)[O-])cc2)CC(=O)N(C2CCCCC2)[C@@H]1c1ccc(CO)cc1I", "Assay system": "Neuregulin-1 EGF-like domain", "Assigned label": "Satisfied"}
{"Compound": "CCCC=C(CCC)[C@@H](NP(=O)(c1ccccc1)c1ccccc1)c1ccc(C(F)(F)F)cc1", "Assay system": "Neuregulin-1 EGF-like domain", "Assigned label": "Not satisfied"}
{"Compound": "CC(C)(C)OC(=O)CC[C@]1(C(=O)N2CCOCC2)N=C(c2ccc(OCCCO)cc2)O[C@H]1c1ccccc1", "Assay system": "Neuregulin-1 EGF-like domain", "Assigned label": "Not satisfied"}
{"Compound": "COc1ccc([Si](C)(C)[C@H]2[C@H](CCn3cc(CCO)nn3)O[C@@]3(C(=O)N(Cc4ccc(N5C(=O)c6cccc7cccc5c67)cc4)c4ccccc43)[C@@H]2C)cc1", "Assay system": "Neuregulin-1 EGF-like domain", "Assigned label": "Satisfied"}
{"Compound": "CCOC(=O)C1=CC[C@@H](c2ccc([N+](=O)[O-])cc2)N(S(=O)(=O)c2ccc(C)cc2)[C@H]1c1ccccc1", "Assay system": "Neuregulin-1 EGF-like domain", "Assigned label": "Satisfied"}
{"Compound": "C=C[C@@H](COC(C)=O)NS(=O)(=O)c1ccc(Br)cc1", "Assay system": "Neuregulin-1 EGF-like domain", "Assigned label": "Not satisfied"}
